This collection of values is drawn from a melting point compilation (Tetko et al.; mined from patent text by program, amines drawn as free bases though some values may be those of a salt).

quantityKind: melting point

Please review the entries below; each comes with its answer.
O=c1c(Br)c(OCc2ccccc2Cl)ccn1Cc1ccccc1 :: 143 to 146 °C
COCCC(=O)N(Cc1ccc(OC(F)(F)F)cc1)c1cc(Cl)cc(-c2nnn[nH]2)c1 :: 146 to 151 °C
CCCCCCCC(=O)c1ccc(CCOS(=O)(=O)c2ccc(C)cc2)cc1 :: 59 to 60 °C
COc1cc(C(=CC#N)c2cc(OC)c(OC)c(OC)c2)ccc1N :: 123 to 125 °C
COc1ccc(-c2nc3cc(F)ccc3s2)cc1OC(=O)c1ccc([N+](=O)[O-])cc1 :: 198 °C
CC(C)(C)C(=O)C(=CC(=O)c1ccc(Cl)cc1)n1cncn1 :: 140 °C
COC(=O)[C@@H]1COC(c2ncn3c2CN(C)C(=O)c2ccccc2-3)=N1 :: 190 to 192 °C
CCCCCCCCCCCCCCCCCCCCCCCCCCCCOC(=O)c1cccnc1 :: 65 to 70 °C

Look at each molecule and report its melting point.
1. CCCCCCCOc1ccc(C(N)=O)cc1
2. NC1=NN(c2ccccc2)C(c2ccccc2)C1 (stereo not given)
3. CC(C)C(Br)C(=O)Nc1ccccc1O (stereo not given)
4. CCCC1NS(=O)(=O)N(COC(=O)c2c(Cl)cccc2Cl)C1=O (stereo not given)

result:
1. 149 to 152 °C
2. 195 to 197 °C
3. 110 to 111 °C
4. 95 to 97 °C

Look at each molecule and report its melting point.
1. CCOC(=O)CCc1cc(Cl)c(Cl)cc1C(=O)CCCNC(C)=O
2. CNC(=O)NC(=O)C(CC1CCCC1)c1ccc(S(C)(=O)=O)c(C#N)c1 (stereo not given)
3. COC(=O)C1=C(C)NC(C)=C(C(=O)OC)C1c1ccccc1-c1cccs1

result:
1: 63 to 65 °C; 2: 237 to 239 °C; 3: 173 to 175 °C

* * *

quantityKind: melting point

Please review the entries below; each comes with its answer.
CCC(CC)(CC(=O)Nc1cccc(/C=C/c2nc(C3CCC3)cs2)c1)C(=O)O :: 170 to 172 °C
O=C(O)c1cccc2nc3n(c12)CCC3 :: 310 to 312 °C
CS(=O)c1nsc(Cl)n1 (centres undefined) :: 72 °C

Next up:
query: For COc1ccc2c(=O)[nH]c(-c3cc(C)c(OCCN4CCCC4)c(C)c3)nc2c1 , what is its reported melting point?
result: 218 to 220 °C

* * *

Field: melting point. Provide a value for each of the molecules that follow.

CC(=O)NCC1CN(c2ccc3c(c2)OCC2CN(C(=O)c4cc5ccccc5[nH]4)CCN32)C(=O)O1 (stereo not drawn) :: > 250 °C
Oc1cccc(COC=C2C3CC4CC(C3)CC2C4)c1 :: 133 to 134 °C

Look at each molecule and report its melting point.
1. Cc1ccc([N+](=O)[O-])cc1C=CC#N
2. N#Cc1ccc(Br)cc1Br
3. Clc1ccc(/C=C/c2ccc(Cl)cc2)cc1
4. COc1ccc(C=C2C(=O)C3(C)CCC2C3(C)C)cc1OC (stereo not drawn)
5. Cc1c(NC(=O)c2ccc(CC(=O)C3CC3)cc2)ccc2cc(CN3CCCC3)cnc12

result:
1. 113 °C
2. 76 to 78 °C
3. 176 °C
4. 107 °C
5. 200 to 201 °C

Look at each molecule and report its melting point.
1. COC(=O)C1=C(C(OC)OC)NC(C)=C(c2nc(CCl)no2)C1c1cccc([N+](=O)[O-])c1 (stereo not drawn)
2. O=C(O)c1cc(Cl)c(Cl)c(-c2ccc(Cl)cc2)n1

result:
1: 141 to 142 °C; 2: 229 °C

Look at each molecule and report its melting point.
1. COC(=O)C(=O)c1ccc(N(C=O)CCOc2ccc3ccccc3c2)cc1
2. CCOCC(=NO)C(C)(C)NCCCNC(C)(C)C(Cn1ccnc1[N+](=O)[O-])=NO
3. Cc1nsc(-c2ccc(N3CCN(c4cccc(C(F)(F)F)c4)CC3)nn2)n1
4. Brc1ccc2c(CCN3CCCCC3)c(-c3ccccc3)[nH]c2c1

result:
["103 to 104 °C", "122 to 123 °C", "173 °C", "> 230 °C"]
